B1: Receptor-interacting serine/threonine-protein kinase 2, residues 438 to 518; numbered along this chain, O43353 (parent)
chain: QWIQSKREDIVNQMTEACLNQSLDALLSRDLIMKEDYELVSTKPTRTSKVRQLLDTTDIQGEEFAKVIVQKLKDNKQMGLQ

variants of: B1; test: abundance fitness (aPCA) (normalised: wild type 0, dead -1); higher = more abundant; growth selection in yeast, the domain comes from the species named; details: Homo sapiens
Classes by abundance fitness: Low (below -0.5), Mid (-0.5 to below -0.2), High (-0.2 or more)

Solved entries (count: 4):
Band of QWIQSKREDIVNQMTEACLNQSLDALLSRDLIMKEDYELVSTKPTRTSKPRQLLDTTDIQGEEFAKVIVQKLKDNKQMGLQ [V50P] ?
Low

Band of QWIQSKREDIVNQMTEACLNQSLDALLSRDLIMKEDYELVSTKPTRTSKVRQLLDTTWIQGEEFAKVIVQKLKDNKQMGLQ [D58W] ?
High

Band of QWIQSKREDIVNQMTEACLNQSLDALLSRDLIMKEDYELVSTKPTRTSKVRQLLDTTDIKGEEFAKVIVQKLKDNKQMGLQ [Q60K] ?
Mid

Band of QWIQSKREDIVNQMTEACLNQSLDALLSRDLIMKEDYELVSTKPTRTSKVRQLLDTTDIQGEEFALVIVQKLKDNKQMGLQ [K66L] ?
Low

Next:
Band of QWIQSKREDIVNQMTEACLNQSLDWLLSRDLIMKEDYELVSTKPTRTSKVRQLLDTTDIQGEEFAKVIVQKLKDNKQMGLQ [A25W] ?
Low

Band of QWIQSKREDIVNQMTEACLNQSLDALLSRDLIMKEDYELVSTKPTRTSKVRQLLDTSDIQGEEFAKVIVQKLKDNKQMGLQ [T57S] ?
High

Band of QWIQSKREDIVNQMTEACLNQSWDALLSRDLIMKEDYELVSTKPTRTSKVRQLLDTTDIQGEEFAKVIVQKLKDNKQMGLQ [L23W] ?
Low

Band of QWIQSKREDIVNQMTEACLNQSLDALLSRDLIMKEDYELVSTKPTRTSKVRQLLDTTDIQGEEFAKVISQKLKDNKQMGLQ [V69S] ?
Low

Band of QWIQSKREDIVNQMTEACLNQSLDALLSRDLIMKEDYELVSTKPTRTSKVRQLLDTTDIQGEEFAKVIVQKLFDNKQMGLQ [K73F] ?
Low

Band of QWIQSKREDIVNQMTEACLNQSLDALLSRDLIMKEDYELVSTKPTRTSKVRQLLDTTDIQGEEFAKVIVQNLKDNKQMGLQ [K71N] ?
High

Band of QWIQSKREDIVNQMTEACLNQSLDALLSRMLIMKEDYELVSTKPTRTSKVRQLLDTTDIQGEEFAKVIVQKLKDNKQMGLQ [D30M] ?
Low

Band of QWIQSKREDIVNQMTEACLNQSLDALLSRDLIMKEDYELVSTKPTRTSKVRQLLDTTDIQGEEFAKVTVQKLKDNKQMGLQ [I68T] ?
Mid

Band of QWIQSKREDIVNQMTEACLNQSLDALLSRDLIMKEDYELVSTKPTRTSKVRQLLDTVDIQGEEFAKVIVQKLKDNKQMGLQ [T57V] ?
High

Band of QWIQSKREDIVNQMTEACLNQSLDALLSRDLIMKEDYVLVSTKPTRTSKVRQLLDTTDIQGEEFAKVIVQKLKDNKQMGLQ [E38V] ?
Mid

Band of QWIQSKREDIVNQMTEACLNQSLDALLSRDLIMKEDYELVSTKPTRTSKVRQLLDTTLIQGEEFAKVIVQKLKDNKQMGLQ [D58L] ?
High

Band of QWIQSKREDIVNQMTEACLNQSLDALLSRDLIMKEDYELVSTKPTRTSKVRQLLDTTDIQGEEFAKVIVSKLKDNKQMGLQ [Q70S] ?
High

Band of QWIQSKREDIVNQMTEACLNQSLDALLSRDLIMKEDYELVSTKPTRTSKVRQLHDTTDIQGEEFAKVIVQKLKDNKQMGLQ [L54H] ?
Low

Band of QWIQSKREDIVNQMTEACLNQSLDALLSRDLIMKEDYELVSTKPTRTSKVRQLLDTTDIQGEEFAKVIIQKLKDNKQMGLQ [V69I] ?
High

Band of QWIQSKREDIVNQMTEACLNQSLDALLSRDLIMKEDYELVSTKPTRHSKVRQLLDTTDIQGEEFAKVIVQKLKDNKQMGLQ [T47H] ?
High
